Biological target: Protein disulfide-isomerase (Homo sapiens)
Test: inhibitors of human PDI, primary screen, biochemical, turbidity, single point, plate reader (AID 588391);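 note: absorbance from insulin aggregation driven by PDI reduction with DTT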
Conditions: PDI insulin aggregation turbidity, A650, 90 min; at 10 µM; hits give high values
Screen size: about 350,000 compounds; about 180 (0.051%) were called active. The sample holds actives, similar compounds and a random draw of the others, so the mix is not that of the screen.
PARAMETER: inhibition (%)

• NC(Cc1ccccc1)c1csc(Nc2cc(Oc3ccccc3)ncn2)n1 (stereo not given) = 0.811
• CC(O)(c1cccc(F)c1)c1nc(-c2ccc3c(c2)OCO3)cs1 (stereo not given) = 0.825
• O=C(NCc1ccco1)c1cccc(-c2ccc3nncn3c2)c1 = 3.75
• COc1ccc(C(C)(NC(C)=O)c2nc(-c3ccc(S(C)(=O)=O)cc3)cs2)cc1 (stereo not given) = 4.43
• O=C(NC(c1ccc(-c2ccccc2)cc1)c1cnccn1)C1CCN(CCOc2ccc(Cl)cc2Cl)CC1 (stereo not given) = 4.84
• CCCOc1ccc(F)cc1-c1cc(C(=O)Nc2ccc(F)cc2)[nH]n1 = 5.38
• CCc1ccc2c(c1)NC(=O)C2(C)Cc1ccc(OC(F)(F)F)cc1 (stereo not given) = 8.05
• CC(C)(C)c1ccc(S(=O)(=O)NC(=O)C2(C)CCN2C(=O)CC2CC2)cc1 (stereo not given) = 4.79
• CCc1nc2ccc(C(=O)Nc3ccc(OC)c(OC)c3)cn2c1N(C)C(=O)c1cccc(OC)c1 = 10.6
• CCCOc1ccc(F)cc1-c1cc(C(=O)NCc2ccc(F)cc2)[nH]n1 = -0.369

* * *

Biological target: Protein disulfide-isomerase (Homo sapiens)
Assay: inhibitors of human PDI, primary screen, biochemical, turbidity, single point, plate reader (AID 588391);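 note: absorbance from insulin aggregation driven by PDI reduction with DTT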
Settings: PDI insulin aggregation turbidity, A650, 90 min; at 10 µM; hits give high values
Hit rate of the full screen: of about 350,000 compounds, about 180 (0.051%) were called active. The sample as a whole holds a higher share of actives than the screen did.
Measured inhibition, listed per entry for reference.
PARAMETER: inhibition (%)

* COc1ccc(C(=O)N2CCCCC2c2cc(C(=O)Nc3ccccc3)no2)cc1 (stereo unspecified) | -4.91
* Cc1nc2c(OCc3cccc(Cl)c3)cccn2c1N(C)CC1CC1 | 4.97
* CC(=O)NN=C(C)c1ccc(NC(=O)C2CC2)cc1 | 11.5
* CCNC(=S)Nc1ccc2c(c1)c(=O)n(C)n2Cc1ccc(Cl)cc1 | 7.91
* Cc1ccc(CC2(C)C(=O)Nc3ccc(OC(F)(F)F)cc32)cc1 (stereo unspecified) | 5.49
* Cc1ccccc1Cn1c(C)c(C(=O)NCc2cccc(C(F)(F)F)c2)sc1=O | -0.337

* * *

Target: Protein disulfide-isomerase (Homo sapiens) (UniProt P07237)
Sequence (P07237 whole entry, looked up): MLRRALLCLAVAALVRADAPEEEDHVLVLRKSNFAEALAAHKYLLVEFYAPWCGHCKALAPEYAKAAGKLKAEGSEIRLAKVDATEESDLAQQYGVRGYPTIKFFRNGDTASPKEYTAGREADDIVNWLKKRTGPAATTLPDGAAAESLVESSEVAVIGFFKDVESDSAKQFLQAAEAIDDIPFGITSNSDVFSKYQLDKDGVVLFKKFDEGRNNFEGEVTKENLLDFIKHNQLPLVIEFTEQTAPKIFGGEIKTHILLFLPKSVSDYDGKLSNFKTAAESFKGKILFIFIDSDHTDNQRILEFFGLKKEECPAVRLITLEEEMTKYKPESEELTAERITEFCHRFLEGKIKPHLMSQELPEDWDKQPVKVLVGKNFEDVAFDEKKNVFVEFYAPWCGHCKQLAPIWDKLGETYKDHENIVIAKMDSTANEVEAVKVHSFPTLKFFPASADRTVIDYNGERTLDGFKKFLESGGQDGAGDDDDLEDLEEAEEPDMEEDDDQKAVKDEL
Experiment: inhibitors of human PDI, primary screen, biochemical, turbidity, single point, plate reader (AID 588391);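 note: absorbance from insulin aggregation driven by PDI reduction with DTT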
Conditions: PDI insulin aggregation turbidity, A650, 90 min; at 10 µM
The whole screen tested about 350,000 compounds, of which about 180 (0.051%) were called active.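 How the source made its calls: active means mean inhibition across replicates of 30% or more, whatever share of single replicates reach that level; inconclusive means mean inhibition below 30% while every single replicate reaches 30%; inactive means the rest.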 Shown is part of a subset that was picked to be rich in actives.
Possible outcomes: active, inactive

• CN(C)c1ccc(/C=C/C(=O)c2ccc(O)cc2)cc1[N+](=O)[O-] = active
• COc1ccc(-c2cc(NC=O)c3ncc(-c4cc(OC)c(OC)c(OC)c4)n3c2)c(OC)c1 = inactive
• CCN(CC)C(=O)C1CCCN(Cc2cccc(Cl)c2)C1 (stereo not given) = inactive
• CC1(C(=O)NCc2cccc3ccccc23)CCN1Cc1ccc(-c2ccccc2)o1 (stereo not given) = inactive
• CC(=O)Nc1ccc(C=CC(=O)c2ccc([N+](=O)[O-])cc2)cc1 = inactive

* * *

Molecular target: Protein disulfide-isomerase (Homo sapiens) (UniProt P07237)
Experiment: inhibitors of human PDI, primary screen, biochemical, turbidity, single point, plate reader (AID 588391);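 note: absorbance from insulin aggregation driven by PDI reduction with DTT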
Details: PDI insulin aggregation turbidity, A650, 90 min; at 10 µM; hits give high values
Among all 350,000 compounds or so, about 180 (0.051%) were called active. This excerpt belongs to a sample that is enriched for actives.
PARAMETER: inhibition (%)

* CCc1nc2ccc(C(=O)NC3CCN(Cc4ccccc4)CC3)cn2c1N(CC)CCOC | -3.56
* CCCNC(=O)c1cc(C2CCCCN2S(=O)(=O)c2ccc(C#N)cc2)on1 (stereo not given) | 9
* CS(=O)(=O)/C(C#N)=C/c1cccn1S(=O)(=O)c1ccc([N+](=O)[O-])cc1 | 6.24
* O=C(NCc1cccnc1)c1ccc2nc([C@@H]3O[C@H](CO)[C@H](O)[C@H](O)[C@H]3O)[nH]c2c1 | -7.99
* O=C(Nc1ccc(Cl)c(C(F)(F)F)c1)C1Cc2c(-c3ccccc3Oc3ccccc3)ccnc2O1 (stereo not given) | -5.07

* * *

Target: Protein disulfide-isomerase (Homo sapiens) (UniProt P07237)
Experiment: inhibitors of human PDI, primary screen, biochemical, turbidity, single point, plate reader (AID 588391);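 note: absorbance from insulin aggregation driven by PDI reduction with DTT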
Details: PDI insulin aggregation turbidity, A650, 90 min; at 10 µM; hits give high values
Hit rate of the full screen: of about 350,000 compounds, about 180 (0.051%) were called active. Only a selection was taken, and actives are over-represented in it overall.
Measured inhibition, listed per entry for reference.
PARAMETER: inhibition

• CCOC(=O)c1c(-c2ccccc2)oc2cc(Br)c(O)c(C=O)c12 = 6.15% (inactive)
• CCOC(=O)c1c(-c2ccccc2)oc2cc(Br)c(O)cc12 = 36.3% (active)
• CN(C)C(=O)c1cccc(-c2cnc3sc(NCc4ccc5c(c4)OCO5)nn23)c1 = 9.47% (inactive)
• CC(C)Nc1nc(NCCOc2ccccc2Cl)c2sccc2n1 = 0.492% (inactive)
• CCOC(=O)c1[nH]c2ccc(OC)cc2c1NC(=O)N1CCOCC1 = -4.02% (inactive)
• O=C(c1cc(C2CCCCN2S(=O)(=O)c2ccccc2)on1)N1CCOCC1 (centres undefined) = -7.54% (inactive)
• Cc1nc2c(OCc3ccc(Cl)cc3Cl)cccn2c1N(C)CC1CC1 = -3.07% (inactive)
• Cc1nc(C(F)(F)F)ccc1C(=O)N1CCC1(C)C(=O)NS(=O)(=O)c1ccc(F)cc1F (centres undefined) = -2.79% (inactive)
• CC(C)Oc1ccc(CN2CCC2(C)C(=O)NCc2ccc(C(F)(F)F)cc2)cc1 (centres undefined) = 4.17% (inactive)
• COc1ccc(-c2ccc(C(=O)NCCN3CCOCC3)c3occc23)c(C)c1 = 0.104% (inactive)
• COc1ccc2[nH]c3c(C)c4cc[n+](C)cc4c(C)c3c2c1 = 46.3% (active)
• CCCNC(=O)C1(C)CCN(Cc2ccc(Cl)c(Cl)c2)C1 (centres undefined) = -7.24% (inactive)
• OC(c1ccc(F)cc1)c1ncc(-c2cccc(C(F)(F)F)c2)[nH]1 (centres undefined) = -1.07% (inactive)
• O=C(NCCO)c1cccc(-c2cccc3nccn23)c1 = -96.6% (inactive)
• OC[C@H]1O[C@@H](c2nc(-c3nc(-c4ccc(F)cc4)no3)cs2)[C@H](O)[C@@H](O)[C@H]1O = 9.06% (inactive)
• Cc1cc(C)n2nc(CNS(=O)(=O)c3c(F)c(F)c(F)c(F)c3F)nc2n1 = 127% (active)
• Cc1cc(O)ccc1-c1cc(C(=O)NCc2cc(C(F)(F)F)cc(C(F)(F)F)c2)[nH]n1 = -11.3% (inactive)
• Cc1cccn2c(CN(C)C3CCCc4ccccc43)c(C(=O)N3CCOCC3)nc12 (centres undefined) = 36.6% (active)
• CS(=O)(=O)c1cccc(-c2ccc3nncn3c2)c1 = 1.16% (inactive)
• CCc1nc2ccc(C(=O)N(C)CCN(C)C)cn2c1N(CC)CCOC = 12.7% (inactive)
• CC1(C(=O)NS(=O)(=O)c2cccc(OC(F)F)c2)CCN1C(=O)COc1ccc(Cl)cc1 (centres undefined) = -2.12% (inactive)
• O=C(O)c1ccccc1-c1cccc2nncn12 = 9.27% (inactive)
• CCCC(=O)N1CCC1(C)C(=O)NS(=O)(=O)c1ccc(Cl)cc1 (centres undefined) = 9.48% (inactive)
• NCCCNC(=S)NCCCN(Cc1ccc(Cl)cc1)c1ccc(Br)cn1 = 22.2% (inactive)
• O=C(NCc1ccc(F)cc1)c1cc(C2CCCCN2C(=O)c2ccccn2)on1 (centres undefined) = -12% (inactive)
• OC(c1cc(Cl)cc(Cl)c1)c1ncc(-c2ccccc2C(F)(F)F)[nH]1 (centres undefined) = -0.656% (inactive)
• CCNC(=O)C1CCCN(C(=O)c2ccc(OC)cc2OC)CC1 (centres undefined) = -2.37% (inactive)
• Cc1nc2c(OCC(=O)C(C)(C)C)cccn2c1N(C)Cc1cccs1 = -1.4% (inactive)
• COc1cccc(CNc2nc3cc(-c4csc5ccccc45)sc3c(=O)n2C)c1 = -2.68% (inactive)
• CCc1nc2c(OCCOc3ccccc3)cccn2c1N(C=O)Cc1ccc(OC)cc1 = 3.19% (inactive)
• CCOC(=O)c1c(-c2ccccc2)oc2ccc(OCC(=O)NN)cc12 = -2.38% (inactive)
• CCCS(=O)(=O)NC(=O)C1(C)CCN(C(=O)c2sccc2C)C1 (centres undefined) = 4.32% (inactive)
• COc1cccc(CNc2nc(NCc3ccccc3OC)nc3ccsc23)c1 = -20.9% (inactive)
• CC(C)Cc1ccc(-c2cc3nc(NCc4cccc(Cl)c4)ccn3n2)cc1 = -8.06% (inactive)
• CCCC/C=C/c1cccc2nncn12 = 15.4% (inactive)
• COc1ccccc1CNC(=O)c1cc(-c2cc(F)ccc2OC)n[nH]1 = -13.3% (inactive)
• Cc1cc(C)n2nc(SCC(N)=O)nc2n1 = -1.27% (inactive)
• CCOC(=O)c1c(CN(C)C)n(-c2ccccc2)c2cc(Br)c(O)cc12 = 39.9% (active)
• Cc1cccnc1C(NC(=O)C1CCN(Cc2ccc(Cl)c(Cl)c2)CC1)c1ccc(Cl)cc1 (centres undefined) = -20.8% (inactive)
• COc1ccc(-c2cc3nc(NCCOc4ccccc4)ccn3n2)cc1 = 8.41% (inactive)
• CCc1nc2c(OCc3ccc(C(F)(F)F)cc3)cccn2c1N(C)C(=O)CC(C)C = -3.58% (inactive)
• COc1ccc(-c2ccc(C(=O)NC(C)C)c3occc23)c(C)c1 = -1.92% (inactive)
• CC1(C(=O)Nc2cccc(Oc3ccccc3)c2)CCN1Cc1ccccc1Cl (centres undefined) = 8.27% (inactive)
• CC=CCn1c(SCCCc2ccccc2)nc2c1c(=O)[nH]c(=O)n2C = 8.5% (inactive)
